Value source: patent US8466089B2

Tested on: velvetleaf (Abutilon theophrasti MEDIC.)
Experiment: Test Example 1, foliar treatment in upland pots
Type: in vivo
Conditions: 20th to 22nd day after application, visual, read-out: Growth inhibition rate (%) Velvetleaf
EXPERIMENTAL_ENDPOINT: inhibition at 7 g/ha (%)
Report as a plain number; the unit % is understood.

COCCOc1c(S(C)(=O)=O)ccc(C(=O)c2c(C)nn(C)c2O)c1C	70
Cc1c(C(=O)c2cnn(C)c2O)ccc(S(C)(=O)=O)c1OCCC(C)C	10
CCn1ncc(C(=O)c2ccc(S(C)(=O)=O)c(OCCOC)c2C)c1OC(C)OC(=O)OC (centres unmarked)	100
CCOC(=O)OC(C)Oc1c(C(=O)c2ccc(S(C)(=O)=O)c(OCCOC(C)C)c2C)cnn1C (centres unmarked)	80

Turning now to a further compound:
Request: Query: inhibition at 7 g/ha; subject: "CCc1nn(C)c(O)c1C(=O)c1ccc(S(C)(=O)=O)c(OCCOC)c1C"
Result: 80

---

In this section we review reported inhibition at 250 g/ha values for a set of molecules.
Test system: rice (Oryza sativa L.)
Test: Test Example 2, soil application on the day after sowing
Assay type: in vivo
Details: 21st to 22nd day after application, visual, read-out: Growth inhibition rate (%) Rice
Phrase the answer as number then unit, nothing more needed.

// known answers, use as guide
COCCOc1c(S(C)(=O)=O)ccc(C(=O)c2c(C)nn(C(C)C)c2O)c1C [Compound No. 8-2]	100%
Cc1c(C(=O)c2cnn(C)c2O)ccc(S(C)(=O)=O)c1OCCC(C)C [Compound No. 5-1]	98%
COCCOc1c(S(C)(=O)=O)ccc(C(=O)c2cnn(C(C)C)c2OC(C)OC(=O)OC)c1C (stereo not shown) [Compound No. 4-1]	98%

Turning now to a further molecule:
Request: Query: inhibition at 250 g/ha; subject: COCCOc1c(S(C)(=O)=O)ccc(C(=O)c2c(C)nn(C)c2OC(C)OC(=O)OC)c1C (stereo not shown) [Compound No. 1-6]
Result: 98%

---

System: wheat (Triticum spp.)
Assay: Test Example 2, soil application on the day after sowing
Format: in vivo
Details: 21st to 22nd day after application, visual, read-out: Growth inhibition rate (%) Wheat
EXPERIMENTAL_ENDPOINT: inhibition at 250 g/ha

// known answers, use as guide
CCn1ncc(C(=O)c2ccc(S(C)(=O)=O)c(OCCOC)c2C)c1OC(C)OC(=O)OC (centres unmarked) [Compound No. 2-1]	0%
COCCOc1c(S(C)(=O)=O)ccc(C(=O)c2cnn(C(C)C)c2OC(C)OC(=O)OC)c1C (centres unmarked) [Compound No. 4-1]	10%
COCCOc1c(S(C)(=O)=O)ccc(C(=O)c2c(C)nn(C)c2OC(C)OC(=O)OC)c1C (centres unmarked) [Compound No. 1-6]	5%

Request: For wheat (Triticum spp.), provide inhibition at 250 g/ha of CCOCc1c(S(C)(=O)=O)ccc(C(=O)c2cnn(C)c2OC(C)OC(=O)OCC)c1C (centres unmarked) [Compound No. 1-4] please.
Result: 0%

Request: For wheat (Triticum spp.), provide inhibition at 250 g/ha of Cc1c(C(=O)c2cnn(C)c2O)ccc(S(C)(=O)=O)c1OCCC(C)C [Compound No. 5-1] please.
Result: 20%

Request: For wheat (Triticum spp.), provide inhibition at 250 g/ha of COC(=O)OC(C)Oc1c(C(=O)c2ccc(S(C)(=O)=O)c(C(=O)OC)c2C)cnn1C (centres unmarked) [Compound No. 1-2] please.
Result: 20%

Request: For wheat (Triticum spp.), provide inhibition at 250 g/ha of CCCn1ncc(C(=O)c2ccc(S(C)(=O)=O)c(OCCOC)c2C)c1OC(C)OC(=O)OCC (centres unmarked) [Compound No. 3-1] please.
Result: 10%

Request: For wheat (Triticum spp.), provide inhibition at 250 g/ha of COCCOc1c(S(C)(=O)=O)ccc(C(=O)c2c(C)nn(C(C)C)c2O)c1C [Compound No. 8-2] please.
Result: 20%

---

Tested on: Japanese ribbon waparo (Sagittaria pygmaea)
Assay: Test Example 3, paddy field pot, application to irrigated water
Assay type: in vivo
Conditions: applied at primary leaf stage, 13th to 17th day after application, read-out: Growth inhibition rate (%) Japanese ribbon waparo
EXPERIMENTAL_ENDPOINT: inhibition at 63 g/ha (%)
Report as a plain number; the unit % is understood.

// known answers, use as guide
COC(=O)OC(C)Oc1c(C(=O)c2ccc(S(C)(=O)=O)c(C(=O)OC)c2C)cnn1C (stereo not shown) [Compound No. 1-2]	95
CCOCc1c(S(C)(=O)=O)ccc(C(=O)c2cnn(C)c2OC(C)OC(=O)OCC)c1C (stereo not shown) [Compound No. 1-4]	70
COCCOc1c(S(C)(=O)=O)ccc(C(=O)c2cnn(C(C)C)c2O)c1C [Compound No. 8-1]	95
COCCOc1c(S(C)(=O)=O)ccc(C(=O)c2c(C)nn(C)c2OC(C)OC(=O)OC)c1C (stereo not shown) [Compound No. 1-6]	60
CCn1ncc(C(=O)c2ccc(S(C)(=O)=O)c(OCCOC)c2C)c1OC(C)OC(=O)OC (stereo not shown) [Compound No. 2-1]	80

Request: Query: inhibition at 63 g/ha; subject: CCCn1ncc(C(=O)c2ccc(S(C)(=O)=O)c(OCCOC)c2C)c1OC(C)OC(=O)OCC (stereo not shown) [Compound No. 3-1]
Result: 95

Request: Query: inhibition at 63 g/ha; subject: CCOC(=O)OC(C)Oc1c(C(=O)c2ccc(S(C)(=O)=O)c(OCCOC(C)C)c2C)cnn1C (stereo not shown) [Compound No. 1-5]
Result: 90

---

System: Japanese ribbon waparo (Sagittaria pygmaea)
Test: Test Example 3, paddy field pot, application to irrigated water
Format: in vivo
Conditions: applied at primary leaf stage, 13th to 17th day after application, read-out: Growth inhibition rate (%) Japanese ribbon waparo
In this section we review reported inhibition at 63 g/ha values for a set of molecules.
Report as a plain number; the unit % is understood.

// known answers, use as guide
COCCOc1c(S(C)(=O)=O)ccc(C(=O)c2c(C)nn(C)c2O)c1C	80
CCOCc1c(S(C)(=O)=O)ccc(C(=O)c2cnn(C)c2OC(C)OC(=O)OC)c1C (centres unmarked)	90
CCn1ncc(C(=O)c2ccc(S(C)(=O)=O)c(C(=O)OC)c2C)c1OC(C)OC(=O)OC (centres unmarked)	90
COCc1c(S(C)(=O)=O)ccc(C(=O)c2cnn(C)c2OC(C)OC(=O)OC)c1C (centres unmarked)	70

Request: Query: inhibition at 63 g/ha; subject: "CCc1nn(C)c(O)c1C(=O)c1ccc(S(C)(=O)=O)c(OCCOC)c1C"
Result: 50

---

Test system: wheat (Triticum spp.)
Assay: Test Example 2, soil application on the day after sowing
Format: in vivo
Details: 21st to 22nd day after application, visual, read-out: Growth inhibition rate (%) Wheat
EXPERIMENTAL_ENDPOINT: inhibition at 250 g/ha (%)
Report as a plain number; the unit % is understood.

// known answers, use as guide
COCCOc1c(S(C)(=O)=O)ccc(C(=O)c2cnn(C(C)C)c2O)c1C	0
CCCn1ncc(C(=O)c2ccc(S(C)(=O)=O)c(OCCOC)c2C)c1O	40
CCOC(=O)OC(C)Oc1c(C(=O)c2ccc(S(C)(=O)=O)c(OCCOC(C)C)c2C)cnn1C (centres unmarked)	0
CCOCc1c(S(C)(=O)=O)ccc(C(=O)c2cnn(C)c2OC(C)OC(=O)OC)c1C (centres unmarked)	20
CCn1nc(C)c(C(=O)c2ccc(S(C)(=O)=O)c(OCCOC)c2C)c1O	20
CCc1nn(C)c(O)c1C(=O)c1ccc(S(C)(=O)=O)c(OCCOC)c1C	0

Request: For wheat (Triticum spp.), provide inhibition at 250 g/ha of COCc1c(S(C)(=O)=O)ccc(C(=O)c2cnn(C)c2OC(C)OC(=O)OC)c1C (centres unmarked) please.
Result: 10

Request: For wheat (Triticum spp.), provide inhibition at 250 g/ha of "COCCOc1c(S(C)(=O)=O)ccc(C(=O)c2c(C)nn(C)c2O)c1C" please.
Result: 0

---

In this section we review reported inhibition at 7 g/ha values for a set of molecules.
System: soybean (Glycine max Merr.)
Assay: Test Example 1, foliar treatment in upland pots
Assay type: in vivo
Details: 20th to 22nd day after application, visual, read-out: Growth inhibition rate (%) Soybean

COCCOc1c(S(C)(=O)=O)ccc(C(=O)c2cnn(C(C)C)c2O)c1C	40%
CCc1nn(C)c(O)c1C(=O)c1ccc(S(C)(=O)=O)c(OCCOC)c1C	0%
COCCOc1c(S(C)(=O)=O)ccc(C(=O)c2c(C)nn(C)c2OC(C)OC(=O)OC)c1C (stereo not shown)	80%

Turning now to a further molecule:
Request: Query: inhibition at 7 g/ha; subject: CCn1ncc(C(=O)c2ccc(S(C)(=O)=O)c(OCCOC)c2C)c1OC(C)OC(=O)OC (stereo not shown)
Result: 95%
